# Test system: P12-Ichikawa
# assay summary: cell viability relative to DMSO control; higher = less cytotoxic
# test conditions: RPMI 5 mM glucose + 10% FBS; 48 h; 0.0211 µM
readout: cell viability (%)

molecule=CN1CCCN(C(=O)c2cccc(-c3ccc(/C=C4/C(=O)Nc5ccc(Cl)cc54)o3)c2)CC1 readout="cell viability" val=117
molecule=O=C(NC1CCOCC1)c1ccc(-c2cc(-c3c[nH]nc3-c3ccccn3)ccn2)cc1 readout="cell viability" val=109
molecule=O=C(NC1CCNCC1)c1n[nH]cc1NC(=O)c1c(Cl)cccc1Cl readout="cell viability" val=109
molecule=CC/1=C/N([C@@H]2C[C@@H](O)[C@H](CO)O2)C(=O)NC1=O readout="cell viability" val=85.8
molecule="NC1CCC(N[C@@H]2C[C@H]2c2ccccc2)CC1 (stereo partly specified)" readout="cell viability" val=102
molecule=CC(=O)N1CCN(c2ccc(OCc3nn(C)c(C)c3-c3cccc4c(CCCOc5cc(C)c(Cl)c(C)c5)c(C(=O)O)n(Cc5cccnc5)c34)cc2)CC1 readout="cell viability" val=118

---

# System: NOMO1
# assay summary: cell viability relative to DMSO control; higher = less cytotoxic
# test conditions: RPMI 5 mM glucose + 10% FBS; 48 h; 5.12 µM
readout: cell viability (%)

molecule=O=C1Nc2ccccc2/C1=C1\Nc2ccccc2C1=O val=96.2
molecule=CNC(=O)c1cccc(-c2ccc3c(N4CCOC[C@@H]4C)nc(N4CCOC[C@@H]4C)nc3n2)c1 val=57.9
molecule="COCCOC(=O)C/1=C(C)/NC/2=C(C1C3=CC=CC(=C3)O)/C(=O)CC(C2)C4=C(OC)C=CC=C4 (configuration not stated)" val=97.3
molecule=Clc1ccc(C2(c3ccc(-c4cn[nH]c4)cc3)CCNCC2)cc1 val=77.6
molecule="CCCCCCCCCCCC(CC1OC(=O)C1CCCCCC)OC(=O)C(CC(C)C)NC=O (configuration not stated)" val=100
molecule=CC(C)(C)OC(=O)CN(Cc1ccc(Cl)cc1)Cc1ccc([N+](=O)[O-])s1 val=89.7
molecule=C#Cc1cccc(Nc2ncnc3cc(OCCOC)c(OCCO)cc23)c1 val=103

---

# Test system: SEM cells
# assay summary: cell viability relative to DMSO control; higher = less cytotoxic
# test conditions: RPMI 5 mM glucose + 10% dialyzed FBS; 48 h; 0.00702 µM
readout: cell viability (%)

molecule=O=C1c2c(O)cccc2[C@H]([C@@H]2O[C@H](CO)[C@@H](O)[C@H](O)[C@H]2O)c2cc(CO)cc(O)c21 unit_of_measure=% val=92.4
molecule=COc1cc2nccc(Oc3ccc(NC(=O)Nc4cc(C)on4)c(Cl)c3)c2cc1OC unit_of_measure=% val=123
molecule=CCC1=C[C@@H]2CN(C1)Cc1c([nH]c3ccccc13)[C@@](C(=O)OC)(c1cc3c(cc1OC)N(C)[C@H]1[C@@](O)(C(=O)OC)[C@H](OC(C)=O)[C@]4(CC)C=CCN5CC[C@]31[C@@H]54)C2 unit_of_measure=% val=99.7
molecule=CNC(=O)[C@H](Cc1ccccc1)NC(=O)[C@H](CC(C)C)[C@H](CSc1cccs1)C(=O)NO unit_of_measure=% val=75.4
molecule="O=C1CSC(=O)N1C(CCc1ccncc1)COc1ccc(-c2cccc([N+](=O)[O-])c2)cc1 (configuration not stated)" unit_of_measure=% val=105
molecule=C[N]1C=NC=C1[C@@](N)(C2=CC=C(Cl)C=C2)C3=CC=C4N(C)C(=O)\C=C(\C5=CC=CC(=C5)Cl)C4=C3 unit_of_measure=% val=97.9
molecule=COc1cc(N2CCC(O)CC2)ccc1Nc1cc(Nc2ccccc2[S+](=O)([O-])C(C)C)c2cc[nH]c2n1 unit_of_measure=% val=82.4
molecule=Cc1ccc(NC(=O)C2(c3ccc4c(c3)OC(F)(F)O4)CC2)nc1-c1cccc(C(=O)O)c1 unit_of_measure=% val=97.7
molecule=O=C/1\C=C(/OC(=C1)/C2=C3SC4=C(SC3=CC=C2)C=CC=C4)N5CCOCC5 unit_of_measure=% val=88
molecule=CN(C)CCOC(c1ccccc1)c1ccccc1 unit_of_measure=% val=115
molecule=C=C(C)[C@@H]1CC[C@]2(C)CC[C@]3(C)[C@H](CC[C@@H]4[C@@]5(C)CC[C@H](O)C(C)(C)[C@@H]5CC[C@]43C)[C@@H]12 unit_of_measure=% val=104
molecule=OC[C@H]1O[C@@H](Oc2ccc(O)cc2)[C@H](O)[C@@H](O)[C@@H]1O unit_of_measure=% val=92.2

---

Listed here: items and their measured cell viability.
# Tested on: SEM cells
# assay summary: cell viability relative to DMSO control; higher = less cytotoxic
# test conditions: RPMI 5 mM glucose + 10% FBS; 48 h; 0.0632 µM
readout: cell viability (%)

smi=O=C(O)[C@H](Cc1c[nH]c2ccccc12)N1C(=O)c2ccccc2C1=O system="SEM cells" readout="cell viability" val=100
smi=Nc1nc(-c2nn(Cc3ccccc3F)c3ncccc23)nc(N)c1N1CCOCC1 system="SEM cells" readout="cell viability" val=106
smi=COc1ccc(/C=C\c2cc(OC)c(OC)c(OC)c2)cc1O system="SEM cells" readout="cell viability" val=8.98

Cited source: the supplement of paper PMC11451515
